What follows is a collection of IC50 values obtained with Full length Akt1 (Homo sapiens, UniProt P31749).
Sequence (P31749 whole entry): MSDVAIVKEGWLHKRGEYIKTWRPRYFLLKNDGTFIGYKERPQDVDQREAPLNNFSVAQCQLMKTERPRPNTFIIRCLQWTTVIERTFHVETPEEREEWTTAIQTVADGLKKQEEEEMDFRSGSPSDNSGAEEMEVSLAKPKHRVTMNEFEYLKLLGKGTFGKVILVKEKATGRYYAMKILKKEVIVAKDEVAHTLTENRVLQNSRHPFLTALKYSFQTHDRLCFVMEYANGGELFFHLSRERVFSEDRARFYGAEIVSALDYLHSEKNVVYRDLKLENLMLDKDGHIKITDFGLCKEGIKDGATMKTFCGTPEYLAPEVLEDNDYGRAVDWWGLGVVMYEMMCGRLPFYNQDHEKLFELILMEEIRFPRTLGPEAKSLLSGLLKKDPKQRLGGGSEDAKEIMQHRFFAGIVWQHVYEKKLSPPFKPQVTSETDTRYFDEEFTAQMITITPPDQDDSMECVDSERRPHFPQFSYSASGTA

| Compound | IC50 |
| --- | --- |
| Cn1ncc(Cl)c1-c1ccc2c(c1)CN([C@H](CN)Cc1cccc(-c3ccsc3)c1)C2=O | < 500 nM |
| Cn1nccc1-c1ccc2c(c1)CN([C@H](CN)Cc1cccc(C#N)c1)C2=O | 500 to 5000 nM |
| Cn1ncc(Br)c1-c1ccc2c(c1)CN([C@H](CN)Cc1cc(F)cc(F)c1)C2=O | < 500 nM |
| CCCOCc1cnn(C)c1-c1cc2c(cn1)C(=O)N([C@H](CN)Cc1cccc(F)c1)C2 | < 500 nM |

The following compounds each have a reported value; give each one's IC50.
1. Cn1ncc(Cl)c1-c1ccc2c(n1)CN([C@H](CN)Cc1ccccc1)C2=O
2. Cn1ncc(Cl)c1-c1ccc2c(c1)CN([C@H](CN)Cc1ccc(C#N)cc1)C2=O
3. CSCc1cnn(C)c1-c1cc2c(cn1)C(=O)N([C@H](CN)Cc1cccc(F)c1)C2
4. COc1ccc(C(CN)N2Cc3cc(-c4ccnn4C)ccc3C2=O)cc1 (stereo not drawn)

1: 500 to 5000 nM; 2: < 500 nM; 3: < 500 nM; 4: > 5000 nM
